- testTarget: Histone-lysine N-methyltransferase EHMT2 (Homo sapiens) (UniProt Q96KQ7)
- Sequence (Q96KQ7 913-1193 limits assumed): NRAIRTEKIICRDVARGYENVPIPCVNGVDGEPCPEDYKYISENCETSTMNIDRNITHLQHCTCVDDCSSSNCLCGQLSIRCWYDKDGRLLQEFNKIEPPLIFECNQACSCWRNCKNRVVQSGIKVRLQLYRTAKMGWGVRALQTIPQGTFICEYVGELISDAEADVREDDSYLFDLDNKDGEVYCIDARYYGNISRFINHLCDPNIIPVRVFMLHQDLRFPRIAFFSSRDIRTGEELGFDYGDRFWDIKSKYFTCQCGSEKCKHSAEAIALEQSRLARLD
- methodDescription: qHTS Assay for Inhibitors of Histone Lysine Methyltransferase G9a; further: nearly all actives have a fitted effect of over 75% in size
- recordedConditions: G9a H3K9 monomethylation, AlphaScreen, 2 h; series mostly up to 59 µM
In all, about 350,000 compounds went through this assay and about 31,000 (8.9%) were called active. About 15% were inconclusive and are not listed. The call rests on the fitted dose curve; in most records, active means well fitted inhibition curve with a large enough effect; inconclusive means small, poorly fitted or top-dose-only effect; inactive means no such curve, though single readings can be large or run the other way. Shown is part of a subset that was picked to be rich in actives.
Outcomes: yes for active, no for inactive

| compound | classAssignment |
| --- | --- |
| O=C(NCc1ccc2c(c1)OCO2)c1c(O)nc2sccn2c1=O | no |
| COc1ccc(-c2onc(C)c2C)cc1S(=O)(=O)NCCc1ccccc1 | no |
| Cc1ccc(C2C3=C(Nc4[nH]n(-c5ccccc5)c(=O)c42)c2ccccc2C3=O)cc1 (configuration not stated) | yes |
| Cc1ccc(NC(=O)c2cc3cc(C)ccc3n2C)cc1 | no |
| COc1cc(C2NC(=O)NC(c3ccccc3)=C2C(C)=O)c(Br)cc1OCC(N)=O (configuration not stated) | no |
| O=S(=O)(c1ccccc1)c1nc(Cc2ccccc2)oc1N1CCOCC1 | yes |
| O=C(COC(=O)c1ncc(Cl)c(Cl)c1Cl)NCc1ccccc1 | no |
| Cc1cccc(-c2nc(SCC(=O)Nc3cc(C)on3)c3c(=O)n(C)c(=O)n(C)c3n2)c1 | no |
| CS/C(=C\C(=O)c1ccco1)Nc1ccccc1Cl | yes |
| S=C(NNC(=S)NC1CC2C=CC1C2)NC1CC2C=CC1C2 (configuration not stated) | yes |
| O=C(Nc1ccccc1C(=O)N1CCCCC1)c1ccco1 | no |
| O=C(Oc1ccc([N+](=O)[O-])cc1)c1ccc2ccccc2n1 | yes |
| CC(OC(=O)c1ccc2ccccc2n1)C(=O)c1ccccc1 (configuration not stated) | no |
| Cc1ccc(-c2noc(CSc3nnc(-c4ccc(Cl)cc4)n3C)n2)cc1 | no |
| CC(Oc1ccc(Br)cc1)C(=O)NCC(c1ccco1)N1CCCCC1 (configuration not stated) | no |
| O=C(OCc1ccc([N+](=O)[O-])cc1)c1ccccn1 | no |
| COC(=O)c1cc(Cl)c(NC(=O)c2ccco2)cc1OC | no |
| COc1ccc(Cl)cc1NC(=O)CSc1nc2ccccc2c2nc(-c3ccccc3)nn12 | no |
| Cn1c(CNc2nc(-c3ccccc3)cs2)nnc1SCC(=O)c1ccccc1 | yes |
| COc1cc2nc(SCc3ccc(F)cc3)n3nc(CCn4c(C)nc5ccccc54)nc3c2cc1OC | no |
| COc1cccc(CNC(=O)CCc2nc(-c3ccc(C)cc3)no2)c1 | no |
| CCCc1nn2c(=O)cc(COC(=O)c3ccc(NC(=O)C(C)Oc4ccccc4)cc3)nc2s1 (configuration not stated) | no |
